EC50: recorded values
- assay text: Cytotoxicity against human Mel2 cells
- Type: functional
- assay setup: read-out: ED50 (the source's name)
Express the result in µg/mL but write the number alone.

{"columns": ["compound", "EC50 (µg/mL)"],
 "data": [
  ["C=C(C)[C@@H]1CC[C@]2(C(=O)O)CC[C@]3(C)[C@H](CC[C@@H]4[C@@]5(C)CC[C@H](O)C(C)(C)[C@@H]5C[C@H](O)[C@]43C)[C@@H]12", 7.2]
]}

Query: Requested field: EC50. Item: C=C(C)[C@@H]1CC[C@]2(C(=O)O)CC[C@]3(C)[C@H](CC[C@@H]4[C@@]5(C)CC[C@H](O)C(C)(C)[C@@H]5[C@@H](O)[C@H](O)[C@]43C)[C@@H]12
Reply: 16.8

Query: What do we get for C=C(C)[C@@H]1CC[C@]2(C(=O)O)CC[C@]3(C)[C@H](CC[C@@H]4[C@@]5(C)CCC(=O)C(C)(C)[C@@H]5CC[C@]43C)[C@@H]12 [BETUNOLIC ACID] ?
Reply: 0.1

Query: Same for C=C(C)[C@@H]1CC[C@]2(C(=O)O)CC[C@]3(C)[C@H](CC[C@@H]4[C@@]5(C)CC[C@H](O)C(C)(C)[C@@H]5CC[C@]43C)[C@@H]12 [BETULINIC ACID]
Reply: 1
